- assayComment: CC50 (cytotoxicity) reported beside the EC50 values; method not described
- setupConditions: human, MT-2 cells
property: CC50 (µM)
Give bare numbers, in µM.

Data request: Which CC50 reading was recorded for the compound C=C(C)[C@@H]1CC[C@]2(CN3CCOCC3)CC[C@]3(C)[C@H](CC[C@@H]4[C@@]5(C)CC[C@H](OC(=O)CC(C)(C)CC(=O)O)C(C)(C)[C@@H]5CC[C@]43C)[C@@H]12 ?
Data returned: 10.4

* * *

- assayComment: in vitro
- setupConditions: human
property: CC50 (µM)
Numbers only, in µM.

Data request: Which CC50 is reported for this molecule? C=C(C)[C@@H]1CC[C@]2(CCN3CCOCC3)CC[C@]3(C)[C@H](CC[C@@H]4[C@@]5(C)CC[C@H](OC(=O)CC(C)(C)CC(=O)O)C(C)(C)[C@@H]5CC[C@]43C)[C@@H]12
Data returned: 74.8
